This collection of values is drawn from PubChem BioAssay (NCI).

experiment: NCI Yeast Anticancer Drug Screen. Data for the sgs1 mgt1 strain (AID 161);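 note: 0% = growth of cultures given vehicle only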; conditions: S. cerevisiae sgs1 mgt1 strain, at 50.0 µM, stronger effect = higher value
This is part of a sample that, as a whole, favours compounds with a hit. Of some 79,000 tested, about 15% had one in any assay.
growth inhibition below 20% gives No; growth inhibition at or above it gives Yes.

[[record]]
compound = "C=CC1=C(C)C2=NC1=CC1=NC(=CC3=C(C)C4=C(O)CC(=C5NC(=C2)C(C)C5CCC(=O)OC)C4=N3)C(CC)=C1C (stereo unspecified)"
answer_label = "No"

[[record]]
compound = "CN1C(=O)c2ccccc2CC12c1ccccc1C(=O)N2C (stereo unspecified)"
answer_label = "Yes"

[[record]]
compound = "CCCCCCCCn1c(C)nc2c(cnn2C)c1=O"
answer_label = "No"

[[record]]
compound = "O=C(O)c1ccc(Cl)cc1CC(Cl)(Cl)Cl"
answer_label = "No"

[[record]]
compound = "CCN(CC)c1cc2c(cc1Br)-c1ccccc1C2=O"
answer_label = "No"

[[record]]
compound = "O=[n+]1c2ccccc2n([O-])c2cn(-c3ccccc3)c(-c3ccccc3)c21"
answer_label = "Yes"


---

assay: NCI Yeast Anticancer Drug Screen. Data for the bub3 strain (AID 167); conditions: S. cerevisiae bub3 mutant strain, at 50.0 µM, stronger effect = higher value
Compounds without any hit were thinned out: in the full panel of roughly 79,000, 15% have a hit.
property.name: growth inhibition (%)

[[record]]
molecule = "NC(=NC1CCCCC1)/N=C(/N)Nc1ccc(Cl)cc1"
property_name = "growth inhibition"
assay_value = 4.7

[[record]]
molecule = "Cc1cc(OCCOC(=O)Nc2ccccc2C(F)(F)F)cc(C)c1Cl"
property_name = "growth inhibition"
assay_value = -3.5

[[record]]
molecule = "CC(=O)[CH-]C(=O)c1ccccc1.CC(=O)[CH-]C(=O)c1ccccc1.CC(C)CCCC(C)[C@H]1CCC2[C@@H]3CC=C4C[C@@H]([O-])CC[C@]4(C)C3CC[C@@]21C.CC[O-].[Ti+4] (some centres undefined)"
property_name = "growth inhibition"
assay_value = 23.2

[[record]]
molecule = "O=C(Nc1ccccn1)OCCCl"
property_name = "growth inhibition"
assay_value = -28.2

[[record]]
molecule = "CCOC1OC(C2COC(=S)O2)C(O)C1O (centres undefined)"
property_name = "growth inhibition"
assay_value = -0.15

[[record]]
molecule = "COc1cc2[nH]c(-c3ccccc3)cc(=O)c2c(OC)c1OC"
property_name = "growth inhibition"
assay_value = 8.85

[[record]]
molecule = "C/C(CC(=O)Nc1ccc(C)cc1C)=N/N=C(N)N"
property_name = "growth inhibition"
assay_value = -17.7

[[record]]
molecule = "O=C(CCCCl)c1ccccc1"
property_name = "growth inhibition"
assay_value = -7.1

[[record]]
molecule = "COc1cc(C2C(C(C)=O)=C(C)Oc3cc4c(cc32)OCO4)cc(OC)c1O (centres undefined)"
property_name = "growth inhibition"
assay_value = 10.1

[[record]]
molecule = "CCOC(=O)n1cccc(C)c1=N"
property_name = "growth inhibition"
assay_value = -8.85

[[record]]
molecule = "CCN(CC)CCOc1c(C)cccc1C"
property_name = "growth inhibition"
assay_value = 12.1

[[record]]
molecule = "CC1(C)CC(O)=CC(=O)N1"
property_name = "growth inhibition"
assay_value = 10.3

[[record]]
molecule = "COC(=O)C(NC(=O)COc1ccccc1[N+](=O)[O-])C(=O)OC"
property_name = "growth inhibition"
assay_value = -12.6

[[record]]
molecule = "CC1CCc2c(O)ccc(O)c21 (centres undefined)"
property_name = "growth inhibition"
assay_value = -5

[[record]]
molecule = "CN(C)c1ccc(/C=N\\NC(=S)NCCCN2CCN(CCCNC(=S)N/N=C/c3ccc(N(C)C)cc3)CC2)cc1"
property_name = "growth inhibition"
assay_value = 1.5

[[record]]
molecule = "CCc1cc2c(Nc3ccccc3)c3c(nc2s1)CCCC3"
property_name = "growth inhibition"
assay_value = 16.4

[[record]]
molecule = "CN1c2ccccc2Oc2ccc3ccccc3c21"
property_name = "growth inhibition"
assay_value = -8.2

[[record]]
molecule = "COc1ccc(C(=N)c2ccccc2C)cc1"
property_name = "growth inhibition"
assay_value = 8.5

[[record]]
molecule = "CC(=O)Nc1cc(C)c(C(=O)OC(=O)c2cc(C)c(NC(C)=O)cc2C)cc1C"
property_name = "growth inhibition"
assay_value = -0.85

[[record]]
molecule = "O=C(Nc1ccc(Cl)cc1)Nc1nnc(-c2cccc(-c3nnc(NC(=O)Nc4ccc(Cl)cc4)o3)c2)o1"
property_name = "growth inhibition"
assay_value = -3.5

[[record]]
molecule = "CC(=O)c1ccc(NC(=O)CSc2nc(C)nc3c2sc(=S)n3-c2ccccc2)cc1"
property_name = "growth inhibition"
assay_value = -8.2

[[record]]
molecule = "CC12CCC(CC1C(=O)O)C2 (centres undefined)"
property_name = "growth inhibition"
assay_value = 9.75

[[record]]
molecule = "CCCCCCOC(=O)C[n+]1ccc(C(N)=O)cc1"
property_name = "growth inhibition"
assay_value = -18.8

[[record]]
molecule = "CC(SC(=S)N1CCOCC1)c1cc2oc(=O)n(C)c2cc1Cl (centres undefined)"
property_name = "growth inhibition"
assay_value = 24.8


---

assay: NCI Yeast Anticancer Drug Screen. Data for the mec2-1 strain (AID 157); conditions: S. cerevisiae mec2-1 strain, at 50.0 µM, stronger effect = higher value
About 79,000 compounds went through this panel and 15% of them were active in at least one assay; those are over-represented in the sample as a whole.
Known growth inhibition of a selection of compounds
property.name: growth inhibition (%)

[[record]]
compound = "COC1=NC2(C)C(C)=C(c3ccccc3)C1(C)c1ccccc12 (configuration not stated)"
assay_value = -4.4

[[record]]
compound = "CCCN(C(=O)c1ccccc1)C(C#N)c1ccc(C(C#N)N(CCC)C(=O)c2ccccc2)cc1 (configuration not stated)"
assay_value = 1.2

[[record]]
compound = "CC(=O)OC1CCC2(C)C(CCC3C2CCC2(C)C3CCC2C(C)(C)O)C1 (configuration not stated)"
assay_value = 0.3

[[record]]
compound = "CC(O)COc1ccc(Cl)cc1Cl (configuration not stated)"
assay_value = -10.2

[[record]]
compound = "C/C(=N/NC(N)=O)c1ccccc1Cl"
assay_value = 3.5

[[record]]
compound = "CNC(=O)c1ccccc1Sc1ccccc1"
assay_value = -15.8

[[record]]
compound = "CNC(=O)C(C)NC(=O)C(Cc1ccccc1)NC(=O)OC(C)(C)C (configuration not stated)"
assay_value = -57.7

[[record]]
compound = "O=C(O)/C(=C\\c1cc2c(cc1[N+](=O)[O-])OCO2)c1ccccc1"
assay_value = -5.35

[[record]]
compound = "CN(C)C=Nc1c2c(nc3ccccc13)CCCC2"
assay_value = -16.4

[[record]]
compound = "COC(=O)Nc1ccc(C)cc1[N+](=O)[O-]"
assay_value = -8.75

[[record]]
compound = "C=C1C(=O)OC2C1CCC1(C)CC(Br)C(=O)C(C)C21 (configuration not stated)"
assay_value = -1.1

[[record]]
compound = "COc1ccc(OC)c(CCCC(=O)O)c1"
assay_value = 7.65


---

Reported growth inhibition is given for each of the following compounds.
experiment: NCI Yeast Anticancer Drug Screen. Data for the rad50 strain (AID 155);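 note: 0% = growth of vehicle-only cultures of the same strain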; details: S. cerevisiae rad50 strain growth inhibition; at 50.0 µM; stronger effect = higher value
Compounds without any hit were thinned out: in the full panel of roughly 79,000, 15% have a hit.
property.name: growth inhibition (%)

[[record]]
compound = "COc1ccc(/C=N/NS(=O)(=O)c2ccc(/C=C3\\NC(=O)N(C)C3=O)cc2)cc1"
assay_value = -10.5

[[record]]
compound = "N#Cc1c(CC(=O)O)cc(=O)n2c1[nH]c1ccccc12"
assay_value = -13.9

[[record]]
compound = "CSc1nc2ccc(N=Cc3ccccc3O)cc2s1"
assay_value = -25.5

[[record]]
compound = "CCOC(=O)CCC(NC(=O)c1ccc(OCc2ccc3nc(OC)c(OC)nc3c2)cc1)C(=O)OCC (stereo unspecified)"
assay_value = -14.2

[[record]]
compound = "O=C1NC(=O)[C@H]2C3C=CC([C@@H]12)[C@@H]1C(=O)NC(=O)[C@H]31"
assay_value = 41.7

[[record]]
compound = "Nc1nc2c(C(=O)N3CCCC3)nnn2c2cccc(Cl)c12"
assay_value = -4.45

[[record]]
compound = "Oc1ccc(C(c2ccc(O)cc2)c2ccc(O)cc2)cc1"
assay_value = 2.1

[[record]]
compound = "Cc1ccc(C)n1N(c1ccccc1)c1ccccc1"
assay_value = -13.6

[[record]]
compound = "Cc1cc2c(cc1Cl)SC(N/N=C(\\N)c1ccc(Cl)cc1)=NS2(=O)=O"
assay_value = -34.2

[[record]]
compound = "O=C(Nc1cccc2ccccc12)c1ccco1"
assay_value = 14.8

[[record]]
compound = "Cn1c2ccccc2c2nnc(N/N=C/c3cccnc3)nc21"
assay_value = -39.1

